- tested_on: rat RXFP2 (Rattus norvegicus, UniProt F7EMH8)
- Sequence (F7EMH8 20-737): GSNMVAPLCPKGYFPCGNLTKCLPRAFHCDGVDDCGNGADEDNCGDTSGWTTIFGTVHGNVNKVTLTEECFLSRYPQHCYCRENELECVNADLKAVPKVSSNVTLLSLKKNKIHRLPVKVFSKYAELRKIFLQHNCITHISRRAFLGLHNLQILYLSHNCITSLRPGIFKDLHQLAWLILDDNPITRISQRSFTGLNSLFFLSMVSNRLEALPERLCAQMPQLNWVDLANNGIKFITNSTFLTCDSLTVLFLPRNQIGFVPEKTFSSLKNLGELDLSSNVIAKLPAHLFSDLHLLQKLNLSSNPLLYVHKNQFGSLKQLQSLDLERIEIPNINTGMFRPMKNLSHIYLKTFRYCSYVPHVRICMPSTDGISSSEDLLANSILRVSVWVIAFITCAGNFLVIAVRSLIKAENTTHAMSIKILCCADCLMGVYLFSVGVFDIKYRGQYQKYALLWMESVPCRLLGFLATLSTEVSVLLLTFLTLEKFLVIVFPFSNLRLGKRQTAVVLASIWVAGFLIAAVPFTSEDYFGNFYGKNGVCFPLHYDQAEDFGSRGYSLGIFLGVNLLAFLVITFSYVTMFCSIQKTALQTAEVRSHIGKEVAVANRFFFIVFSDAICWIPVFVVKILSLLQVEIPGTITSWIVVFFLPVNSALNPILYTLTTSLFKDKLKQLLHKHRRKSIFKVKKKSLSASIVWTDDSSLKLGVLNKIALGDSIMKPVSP
- experiment_description: INSL3-stimulated CYP11B2 mRNA expression in H295R stably expressing rat RXFP2
- Type: cell-based
- Design: expressed in transfected cells
- measurement_parameters: INSL3 EC80 (3.5 nM), 48 h, qPCR; N = 2
measurement_type: pIC50
In plain terms, pIC50 is the concentration in mol/L turned into minus its base-10 logarithm.

// solved cases for pIC50 follow
1. 1G1: RXFP2 monoclonal antibody from hybridoma, recombinantly expressed in a rat IgG2b backbone (antibody, V domains shown) VH: EVQLQQSGPELVKPGASVKMSCKASGYTFTDYNMHWVKQKPGQGLEWIGYINPYNDGTEYNEKFKGKATLTSDKSSSTAYMDLSSLTSEDSAVYYCARGLWFAMNYWGQGTSVTVSS VL: DIQMTQSSSSFSVSLGDRVTITCKASEDIYNRLAWYQQKPGNTPRLLISGATILETGVPSRFSGSGSGKDYTLSIISLQTEDVATYYCQQYWIIPPTFGGGTKLEIK = 9.77
2. 3H1: RXFP2 monoclonal antibody from hybridoma, recombinantly expressed in a rat IgG2b backbone (antibody, V domains shown) VH: QVQLKETGPGLVAPSQSLSITCTVSGFSLTNYGVNWVRQPPGKGLEWLVVIWSDGSTNYNSALKSRLSISKDNSKSQVFLKMNSLQTDDTAMYYCARQQGYYAMDYWGQGTSVIVSS VL: DIQMTQSPASLSVSVGETVTITCRASENIYSNLAWYQQKQGKSPQLLVYAVTNLADGVPSRFSGSGSGTQYSLKINSLQSEDFGSYYCQHFWGPPYTFGGGTKLEIK = 9.80
3. 4B8: RXFP2 monoclonal antibody from hybridoma, recombinantly expressed in a rat IgG2b backbone (antibody, V domains shown) VH: QVQLKQSGPGLVQPSQSLSITCTVSGFSLSRYGVHWVRQSPGKGLEWLGVIWSGGSTEYNAVFKSRLSISKDNSKSQVFFKMNSLQANDTAIYYCVRADGYYAMEYWGQGTSVTVSS VL: DIQMTQSPASLSVSVGETVTITCRASENIYSNLAWYQQKQGKSPQLLVYAVTNLADGVPSRFSGSGSGTQYSLKINSLQSEDFGNYYCQHFWGTPYTFGGGTKLEIK = 9.77

Next molecule, please.
// Input: 4H2: RXFP2 monoclonal antibody from hybridoma, recombinantly expressed in a rat IgG2b backbone (antibody, V domains shown) VH: QVQLRQSGPSLVQPSQSLSITCTVSGFSLTNYGVHWVRQSPGKGLEWLGVIWRGGNTDHNAAFMSRLSITKDNSESQVFFKMNSLQVDDTAIYYCAKAEGYYALDYWGQGTSVTVYS VL: DIQMTQSPASLSVSVGETVTITCRASENIYSNLAWYQQKQGKSPQLLVYAVTNLADGVPSRFSGSGSGTQYSLKINSLQSEDFGSYYCQHFWGTPWTFGGGTKLEIK . Output its pIC50 only.
9.89
